Measured IC50, listed per entry for reference.
# TARGET_OR_TEST_SYSTEM: PI3K delta (PI3 Kd) (Homo sapiens)
# Construct: endogenous in cells; host or cells: Jurkat, clone E6-1 (ATCC TIB-152) cell lysate
# Sequence (O00329 whole entry): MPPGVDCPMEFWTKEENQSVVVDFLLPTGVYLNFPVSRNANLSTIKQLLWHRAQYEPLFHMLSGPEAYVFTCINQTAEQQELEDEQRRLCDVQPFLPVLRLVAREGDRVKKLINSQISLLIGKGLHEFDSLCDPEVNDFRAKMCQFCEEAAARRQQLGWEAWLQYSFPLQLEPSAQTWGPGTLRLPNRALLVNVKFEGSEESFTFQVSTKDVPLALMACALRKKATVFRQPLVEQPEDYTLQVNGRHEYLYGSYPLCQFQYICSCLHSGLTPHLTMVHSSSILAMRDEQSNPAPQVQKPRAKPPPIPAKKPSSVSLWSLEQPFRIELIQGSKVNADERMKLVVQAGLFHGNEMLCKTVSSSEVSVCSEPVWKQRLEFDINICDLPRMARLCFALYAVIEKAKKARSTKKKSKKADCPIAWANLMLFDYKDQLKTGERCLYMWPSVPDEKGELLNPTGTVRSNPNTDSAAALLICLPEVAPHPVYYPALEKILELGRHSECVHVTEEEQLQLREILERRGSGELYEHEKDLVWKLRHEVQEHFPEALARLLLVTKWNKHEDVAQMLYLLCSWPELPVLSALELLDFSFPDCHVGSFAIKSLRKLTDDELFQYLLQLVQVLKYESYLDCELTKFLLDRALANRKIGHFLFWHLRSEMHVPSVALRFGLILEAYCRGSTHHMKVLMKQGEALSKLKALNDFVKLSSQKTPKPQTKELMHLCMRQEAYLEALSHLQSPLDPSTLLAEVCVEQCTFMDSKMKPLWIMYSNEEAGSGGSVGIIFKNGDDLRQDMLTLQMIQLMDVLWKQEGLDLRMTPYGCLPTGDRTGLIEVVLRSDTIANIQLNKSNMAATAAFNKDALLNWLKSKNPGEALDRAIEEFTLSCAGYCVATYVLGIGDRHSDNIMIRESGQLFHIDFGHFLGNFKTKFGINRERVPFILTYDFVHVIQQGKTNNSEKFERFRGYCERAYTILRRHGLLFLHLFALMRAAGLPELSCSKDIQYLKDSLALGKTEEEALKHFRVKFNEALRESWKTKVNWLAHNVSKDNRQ
# Sequence (P27986 whole entry partner): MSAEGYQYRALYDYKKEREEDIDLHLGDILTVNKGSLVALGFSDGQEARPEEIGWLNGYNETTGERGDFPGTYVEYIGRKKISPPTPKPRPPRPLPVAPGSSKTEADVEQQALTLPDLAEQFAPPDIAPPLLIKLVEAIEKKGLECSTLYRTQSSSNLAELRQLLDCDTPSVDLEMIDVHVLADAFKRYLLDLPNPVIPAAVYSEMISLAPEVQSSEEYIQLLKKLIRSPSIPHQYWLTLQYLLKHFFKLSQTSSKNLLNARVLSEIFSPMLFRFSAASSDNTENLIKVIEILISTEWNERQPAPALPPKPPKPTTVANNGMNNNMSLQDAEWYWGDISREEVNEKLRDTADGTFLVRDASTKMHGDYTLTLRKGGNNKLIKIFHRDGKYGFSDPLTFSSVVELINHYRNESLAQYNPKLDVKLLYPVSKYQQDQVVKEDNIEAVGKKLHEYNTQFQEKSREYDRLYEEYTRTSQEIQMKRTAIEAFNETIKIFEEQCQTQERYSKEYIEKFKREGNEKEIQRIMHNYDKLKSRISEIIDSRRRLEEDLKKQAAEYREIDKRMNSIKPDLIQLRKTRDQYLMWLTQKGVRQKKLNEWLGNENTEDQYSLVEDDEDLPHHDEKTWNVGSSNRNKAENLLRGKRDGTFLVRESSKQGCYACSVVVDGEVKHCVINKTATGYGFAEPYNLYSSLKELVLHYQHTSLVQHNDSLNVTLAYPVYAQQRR
# TEST_SUMMARY: kinobeads assay, PI3K delta
# Type: binding
# CONDITION_SUMMARY: Further Kinobeads Data; read-out: PI3Kd
Where a name gives a salt, the structure may show the parent alone.

Take a look at these entries with their results.
>  <COMPOUND>
COC(=O)N1Cc2nc(-c3ccc(NC(=O)NCCF)cc3F)nc(N3CCOC[C@@H]3C)c2C1

>  <IC50>
> 10 µM

$$$$
>  <COMPOUND>
Cl.O=C(Nc1ccc(-c2nc3c(c(N4CCOCC4)n2)CNC3)c(F)c1)NC1CC1 [Example 148, hydrochloride]

>  <IC50>
> 10 µM

$$$$
>  <COMPOUND>
C[C@@H]1COCCN1c1nc(-c2ccc(NC(=O)NC3CC3)cc2F)nc2c1CN(C(=O)C1CC1)C2

>  <IC50>
> 10 µM

$$$$
>  <COMPOUND>
CCNC(=O)Nc1ccc(-c2nc3c(c(N4CCOCC4)n2)CNC3)c(F)c1 [Example 150, hydrochloride]

>  <IC50>
> 10 µM

$$$$
>  <COMPOUND>
CC(C)C(=O)N1Cc2nc(-c3ccc(NC(=O)NC4CC4)cc3F)nc(N3CCOC[C@@H]3C)c2C1

>  <IC50>
> 10 µM

$$$$
>  <COMPOUND>
C[C@H]1COCCN1c1nc(-c2ccc(NC(=O)NC3CC3)cc2F)nc2c1CN(S(C)(=O)=O)C2

>  <IC50>
> 10 µM

$$$$

Turning now to a further compound:
Problem: Using the record for CCNC(=O)Nc1c(F)cc(-c2nc3c(c(N4CCOC[C@@H]4C)n2)CN(C)C3)cc1F , state its measured IC50.
Solution: > 10 µM

====

# TARGET_OR_TEST_SYSTEM: mTOR (Homo sapiens, UniProt P42345)
# Construct: endogenous in cells; host or cells: Jurkat, clone E6-1 (ATCC TIB-152) cell lysate
# TEST_SUMMARY: mTOR kinobeads assay (competitive binding in Jurkat cell lysate, immunodetection)
# CONDITION_SUMMARY: kinobeads assay, Table 6; read-out: Inhibition values (IC50) mTOR
# Protocol: The compounds of the present invention as described were tested in the mTOR kinobeads assay as described below. […] After the incubation time the beads with captured proteins were separated from the lysate. Bound proteins were then eluted and the presence of mTOR, PI3K delta (PI3 Kd) and DNA-dependent protein kinase (DNA-PK) was detected and quantified using a specific antibody in a dot blot procedure and the Odyssey infrared detection system. […]
pIC50: −log10 of the molar value.
RECORDED_METRIC: pIC50

>  <COMPOUND>
CCNC(=O)Nc1ccc(-c2nc3c(c(N4CCOC[C@@H]4C)n2)CCN(C(=O)NCC)C3)cc1

>  <pIC50>
> 7.00

$$$$
>  <COMPOUND>
C[C@H]1COCCN1c1nc(-c2ccc(NC(=O)NC3CC3)cc2)nc2c1CN(CC1CCN(C(=O)OC(C)(C)C)CC1)C2

>  <pIC50>
6.00 to 7.00

$$$$
>  <COMPOUND>
CCOC(=O)N1Cc2nc(-c3ccc(NC(=O)Nc4ccncc4)cc3)nc(N3CCOC[C@@H]3C)c2C1

>  <pIC50>
> 7.00

$$$$
>  <COMPOUND>
CCNC(=O)Nc1ccc(-c2nc3c(c(N4CCOC[C@@H]4C)n2)CN(C(=O)C(C)(C)C)C3)cc1

>  <pIC50>
6.00 to 7.00

$$$$
>  <COMPOUND>
C[C@H]1COCCN1c1nc(-c2ccc(NC(=O)NC3CC3)cc2)nc2c1CNC2

>  <pIC50>
> 7.00

$$$$
>  <COMPOUND>
CCOC(=O)N1Cc2nc(-c3ccc(NC(=O)Nc4cccc(O)c4)cc3)nc(N3CCOC[C@@H]3C)c2C1

>  <pIC50>
6.00 to 7.00

$$$$

Turning now to a further compound:
Problem: Using the record for CCOC(=O)N1CCc2c(nc(-c3ccc(NC(=O)NC4CC4)cc3)nc2N2CCOC[C@@H]2C)C1 , state its measured pIC50.
Solution: > 7.00
